assay: self-splicing fitness, log relative to wild type (ln ratio); higher = more splicing; Tetrahymena group I intron in knt gene, E. coli kanamycin selection, DiMSum; sequences stand for … in CUCUCU…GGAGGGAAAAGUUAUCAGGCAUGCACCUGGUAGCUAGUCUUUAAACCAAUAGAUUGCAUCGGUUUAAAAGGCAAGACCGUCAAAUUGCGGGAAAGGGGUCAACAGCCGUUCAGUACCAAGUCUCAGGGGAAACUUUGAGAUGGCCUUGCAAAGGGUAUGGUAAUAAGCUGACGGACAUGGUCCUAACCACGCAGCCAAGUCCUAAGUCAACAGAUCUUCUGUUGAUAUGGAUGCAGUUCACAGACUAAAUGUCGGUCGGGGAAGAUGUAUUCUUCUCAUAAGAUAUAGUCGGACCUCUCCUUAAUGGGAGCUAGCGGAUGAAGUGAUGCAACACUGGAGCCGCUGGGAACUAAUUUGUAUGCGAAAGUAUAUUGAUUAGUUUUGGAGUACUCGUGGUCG; conditions: 37 °C;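 further: selection with 25 µg/mL kanamycin versus none on LB agar overnight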
The following sequences are listed with their measured self-splicing fitness (ln) values.

{"columns": ["Sequence Content", "self-splicing fitness (ln)"],
 "data": [
  ["GCAUAGCAAUAUUACGUUCU", -0.899],
  ["AAAAAGCAAUAUUACGGCUU", 0.259],
  ["AGCAAGCAAUAUUACGGCAG", -0.357],
  ["CAGGAGCAAUAUUACGGGUA", -3.31],
  ["UUUCAGCAAUAUUACGCGCC", -0.992],
  ["AGGAAGCAAUAUUACGAUAC", -2.02],
  ["CUUGAGCAAUAUUACGUGGA", -3.25],
  ["UCCAAGCAAUAUUACGAGCG", -0.978]
]}

* * *

assay: self-splicing fitness, log relative to wild type (ln ratio); higher = more splicing; Tetrahymena group I intron in knt gene, E. coli kanamycin selection, DiMSum; sequences stand for … in CUCUCU…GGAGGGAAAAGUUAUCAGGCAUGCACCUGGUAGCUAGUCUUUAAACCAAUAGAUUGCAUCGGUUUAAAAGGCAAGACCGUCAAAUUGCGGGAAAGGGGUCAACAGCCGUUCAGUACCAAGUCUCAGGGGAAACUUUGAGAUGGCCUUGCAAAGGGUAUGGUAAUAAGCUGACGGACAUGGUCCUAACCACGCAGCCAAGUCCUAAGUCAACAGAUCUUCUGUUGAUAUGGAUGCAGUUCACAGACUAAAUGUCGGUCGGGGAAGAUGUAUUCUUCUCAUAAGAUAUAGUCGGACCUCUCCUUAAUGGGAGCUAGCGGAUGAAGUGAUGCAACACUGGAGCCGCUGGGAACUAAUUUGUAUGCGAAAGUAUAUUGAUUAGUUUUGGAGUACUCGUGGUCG; conditions: 37 °C
Endpoint Name: self-splicing fitness (ln)

{"columns": ["Sequence Content", "Endpoint Name", "Result Number"],
 "data": [
  ["GAUUAGCAAUAUUACGCAUG", "self-splicing fitness (ln)", -0.334],
  ["AGAUAGCAAUAUUACGCCAG", "self-splicing fitness (ln)", -1.78],
  ["UAUAAGCAAUAUUACGGUAG", "self-splicing fitness (ln)", -0.912],
  ["CCUCAGCAAUAUUACGAAAG", "self-splicing fitness (ln)", -0.45],
  ["GACAAGCAAUAUUACGUCGA", "self-splicing fitness (ln)", -1.24],
  ["GCUGAGCAAUAUUACGUUUA", "self-splicing fitness (ln)", -1.87],
  ["CCCGAGCAAUAUUACGGAAA", "self-splicing fitness (ln)", -1.57],
  ["UAUCAGCAAUAUUACGCGAG", "self-splicing fitness (ln)", -0.298]
]}

* * *

assay: self-splicing fitness, log relative to wild type (ln ratio); higher = more splicing; Tetrahymena group I intron in knt gene, E. coli kanamycin selection, DiMSum; sequences stand for … in CUCUCU…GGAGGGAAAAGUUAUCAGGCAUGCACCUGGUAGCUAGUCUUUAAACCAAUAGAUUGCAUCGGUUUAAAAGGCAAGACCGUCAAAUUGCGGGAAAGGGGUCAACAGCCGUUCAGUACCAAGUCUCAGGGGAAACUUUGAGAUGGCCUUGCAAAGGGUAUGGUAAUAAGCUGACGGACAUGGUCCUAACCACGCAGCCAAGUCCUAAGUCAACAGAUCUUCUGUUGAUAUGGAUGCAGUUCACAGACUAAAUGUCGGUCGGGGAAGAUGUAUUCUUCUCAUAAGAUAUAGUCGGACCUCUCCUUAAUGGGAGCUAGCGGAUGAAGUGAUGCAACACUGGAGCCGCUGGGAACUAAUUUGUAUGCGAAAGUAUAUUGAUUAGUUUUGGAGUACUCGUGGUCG; conditions: 37 °C
Assign condition met to entries whose self-splicing fitness (ln) meets or exceeds -1; assign condition not met to the rest.

{"columns": ["Sequence Content", "Class"],
 "data": [
  ["UCAAAGCAAUAUUACGCCGG", "condition met"],
  ["GUGUAGCAAUAUUACGACUG", "condition not met"],
  ["CAAGAGCAAUAUUACGCGGU", "condition not met"],
  ["CGUGAGCAAUAUUACGCUAA", "condition not met"],
  ["GCGCAGCAAUAUUACGUGUU", "condition met"],
  ["ACGUAGCAAUAUUACGGGGG", "condition not met"],
  ["CCGAAGCAAUAUUACGCUGA", "condition not met"],
  ["CACCAGCAAUAUUACGUGUC", "condition not met"],
  ["GGUCAGCAAUAUUACGCUCU", "condition met"],
  ["UCGAAGCAAUAUUACGGACC", "condition not met"],
  ["AACCAGCAAUAUUACGUGAC", "condition not met"]
]}

* * *

assay: self-splicing fitness, log relative to wild type (ln ratio); higher = more splicing; Tetrahymena group I intron in knt gene, E. coli kanamycin selection, DiMSum; sequences stand for … in CUCUCU…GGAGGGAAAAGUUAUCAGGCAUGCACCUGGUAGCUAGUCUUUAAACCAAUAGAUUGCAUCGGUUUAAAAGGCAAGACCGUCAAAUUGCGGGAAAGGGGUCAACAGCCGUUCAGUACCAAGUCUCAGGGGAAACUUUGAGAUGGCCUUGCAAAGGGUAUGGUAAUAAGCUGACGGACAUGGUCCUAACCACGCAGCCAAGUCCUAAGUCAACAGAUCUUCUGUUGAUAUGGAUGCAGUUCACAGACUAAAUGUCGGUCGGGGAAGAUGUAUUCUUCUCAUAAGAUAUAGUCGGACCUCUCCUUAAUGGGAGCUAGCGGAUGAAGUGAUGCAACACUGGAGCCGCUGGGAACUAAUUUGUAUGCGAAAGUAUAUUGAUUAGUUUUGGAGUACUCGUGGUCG; details: 37 °C
Some sequences, each annotated with its measured self-splicing fitness (ln).
Endpoint Name: self-splicing fitness (ln)

{"columns": ["Sequence Content", "Endpoint Name", "Result Number"],
 "data": [
  ["GGGUAGCAAUAUUACGGUGU", "self-splicing fitness (ln)", -0.365],
  ["UUGUAGCAAUAUUACGGUGC", "self-splicing fitness (ln)", -2.07],
  ["CGUGAGCAAUAUUACGGGGC", "self-splicing fitness (ln)", -2.03],
  ["UUAGAGCAAUAUUACGGAGC", "self-splicing fitness (ln)", -2.31],
  ["CGAUAGCAAUAUUACGGUUA", "self-splicing fitness (ln)", -0.253],
  ["GGGAAGCAAUAUUACGCCAA", "self-splicing fitness (ln)", -0.896],
  ["CCUCAGCAAUAUUACGUAAA", "self-splicing fitness (ln)", -3.05]
]}

* * *

assay: self-splicing fitness, log relative to wild type (ln ratio); higher = more splicing; Tetrahymena group I intron in knt gene, E. coli kanamycin selection, DiMSum; sequences stand for … in CUCUCU…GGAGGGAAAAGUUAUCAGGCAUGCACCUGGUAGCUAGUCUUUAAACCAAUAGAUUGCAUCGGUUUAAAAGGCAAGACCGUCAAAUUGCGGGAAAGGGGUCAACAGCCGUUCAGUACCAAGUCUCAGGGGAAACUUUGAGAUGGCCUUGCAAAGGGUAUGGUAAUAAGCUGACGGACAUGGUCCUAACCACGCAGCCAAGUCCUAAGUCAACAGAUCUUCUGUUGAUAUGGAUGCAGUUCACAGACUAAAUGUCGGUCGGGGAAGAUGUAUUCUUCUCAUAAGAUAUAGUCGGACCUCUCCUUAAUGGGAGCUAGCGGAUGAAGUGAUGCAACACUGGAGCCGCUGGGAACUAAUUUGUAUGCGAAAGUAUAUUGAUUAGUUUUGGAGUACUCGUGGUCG; settings: 30 °C
Please use Criterion met whenever self-splicing fitness (ln) is not below -2, and Criterion not met whenever it is.

{"columns": ["Sequence Content", "Class"],
 "data": [
  ["AAUUAGCAAUAUUACGAACC", "Criterion met"],
  ["UGCGAGCAAUAUUACGGUUC", "Criterion not met"],
  ["GCACAGCAAUAUUACGAAUG", "Criterion met"],
  ["UCUCAGCAAUAUUACGUUUG", "Criterion not met"],
  ["AGUUAGCAAUAUUACGAGGA", "Criterion not met"],
  ["UAUCAGCAAUAUUACGUCUA", "Criterion met"],
  ["AUUAAGCAAUAUUACGUUUU", "Criterion not met"],
  ["AGAAAGCAAUAUUACGCGUC", "Criterion met"],
  ["CUCAAGCAAUAUUACGAACA", "Criterion not met"],
  ["UCAAAGCAAUAUUACGCCGC", "Criterion not met"],
  ["UCUGAGCAAUAUUACGUGUU", "Criterion not met"],
  ["UCUGAGCAAUAUUACGGGUG", "Criterion not met"],
  ["GGACAGCAAUAUUACGCCUG", "Criterion not met"],
  ["CAGGAGCAAUAUUACGCACU", "Criterion not met"],
  ["AAUGAGCAAUAUUACGGCAG", "Criterion not met"],
  ["CUCAAGCAAUAUUACGUCAU", "Criterion not met"],
  ["CACCAGCAAUAUUACGGCUU", "Criterion met"],
  ["GGAUAGCAAUAUUACGGUUA", "Criterion met"],
  ["GCAAAGCAAUAUUACGGGAU", "Criterion met"],
  ["UGCUAGCAAUAUUACGCCUG", "Criterion met"],
  ["AGGCAGCAAUAUUACGCGUA", "Criterion met"],
  ["GCCAAGCAAUAUUACGCGAU", "Criterion not met"],
  ["UCGUAGCAAUAUUACGUGCU", "Criterion not met"],
  ["GUUGAGCAAUAUUACGUGGU", "Criterion not met"]
]}
